Source of measurements: patent US20260274955A1

# measured-target: T1, anti-CD28 Fab (SEQ ID NOs: 202, 203)
# T1 construct: biotinylated and captured on neutravidin coated plates in the phage ELISA
# T1 sequence (VH, as listed by the source, chain 1 of 2): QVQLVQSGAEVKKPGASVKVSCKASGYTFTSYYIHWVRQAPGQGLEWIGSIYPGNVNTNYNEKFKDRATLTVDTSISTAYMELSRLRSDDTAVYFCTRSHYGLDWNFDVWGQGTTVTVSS
# T1 sequence (VL, as listed by the source, chain 2 of 2): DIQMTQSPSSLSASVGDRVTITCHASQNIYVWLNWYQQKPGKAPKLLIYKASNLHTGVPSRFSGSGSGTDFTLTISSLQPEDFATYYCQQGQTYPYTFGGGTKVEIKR
# assay: phage ELISA on captured Fab;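 note: ELISA with clonal phage supernatants added to wells preincubated with CD28 antigen or with blocking buffer only, bound phage detected by HRP-conjugated anti-M13 antibody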
Measured Anti-CD28 Fab (SEQ ID NOs: 202, 203) signal values are reported for all entries that follow.
measured-parameter: Anti-CD28 Fab (SEQ ID NOs: 202, 203) signal

{"binder": "YCEGHAQEYMNKCL (on phage, pIII fusion) [Phage-460]", "reading": 1.67}
{"binder": "YCEGHTLEYMWKCL (on phage, pIII fusion) [Phage-541]", "reading": 1.55}
{"binder": "YCDGHLAVYMAKCL (on phage, pIII fusion) [Phage-556]", "reading": 1.52}
{"binder": "YCDGHSPEYMLKCL (on phage, pIII fusion) [Phage-505]", "reading": 1.61}
{"binder": "YCDGHSWQYISKCL (on phage, pIII fusion) [Phage-455]", "reading": 1.67}
{"binder": "YCEGHMPEYLQKCL (on phage, pIII fusion) [Phage-514]", "reading": 1.6}
{"binder": "YCDGHLPMYMKKCL (on phage, pIII fusion) [Phage-533]", "reading": 1.57}
{"binder": "YCEGHIAEYMQKCL (on phage, pIII fusion) [Phage-480]", "reading": 1.64}
{"binder": "YCEGHLPQYMRPCL (on phage, pIII fusion) [Phage-465]", "reading": 1.66}
